Each entry below carries its recorded AIRE transcriptional activation functional score.
B1: library; numbered along this chain (parent)
chain: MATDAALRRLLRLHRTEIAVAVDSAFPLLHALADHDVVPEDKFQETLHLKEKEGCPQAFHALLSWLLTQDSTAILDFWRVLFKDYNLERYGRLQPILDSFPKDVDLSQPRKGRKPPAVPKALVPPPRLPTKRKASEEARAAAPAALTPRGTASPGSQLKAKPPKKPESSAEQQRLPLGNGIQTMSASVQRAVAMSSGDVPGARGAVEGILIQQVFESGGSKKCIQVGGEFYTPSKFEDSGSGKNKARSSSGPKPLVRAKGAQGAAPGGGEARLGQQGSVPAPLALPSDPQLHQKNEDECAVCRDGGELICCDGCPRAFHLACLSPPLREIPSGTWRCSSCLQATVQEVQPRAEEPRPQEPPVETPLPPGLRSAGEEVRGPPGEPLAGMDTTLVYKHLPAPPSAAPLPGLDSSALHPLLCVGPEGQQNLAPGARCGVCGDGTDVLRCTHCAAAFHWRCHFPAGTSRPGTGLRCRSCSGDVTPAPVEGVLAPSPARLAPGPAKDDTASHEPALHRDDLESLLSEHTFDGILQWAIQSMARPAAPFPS

Variants of: B1
Assay: AIRE transcriptional activation functional score (insulin promoter-GFP; nonsense median 0, synonymous median 1) (normalised score); higher = higher AIRE activity (more reporter activation)
Details: with insulin promoter-GFP reporter in HEK293
assay_metric: AIRE transcriptional activation functional score

> print(dat)
    mutation.string    value
 1            R433I    0.308
 2            L417D     1.12
 3             V20L    0.278
 4            P143Q     1.33
 5            G180V     0.54
 6            H319D     1.24
 7            I181F     1.59
 8            L366N    0.777
 9            G155H     1.71
10            T232L      1.1
11            L122Y     1.45
12            L341W     1.32
13            P542T    0.963
14            L320G    0.879
15            G180I    0.248
16            A404G     0.91
17            R257P    0.935
18            A134S     1.06
19             I96H     1.08
20            V214L    0.413
21             F82S    0.375
22             S64L   -0.114
23            L177W     2.38
24            E522V    0.236
25            V487N    0.296
26            P368A      1.2
27             G54R   -0.991
28            C419L     1.33
29            G424E     0.64
30             L11Y   -0.339
31            R132Q    0.308
32            S239Y     1.43
33             P95A     1.12
34            D288W     1.59
35            V279M     1.34
36            T364R    0.983
37            P200R     0.99
38            A510M     1.37
39            S220A    0.262
40             P56G    0.501
41            P315Q     1.05
42            S535A      1.1
43            G462C    0.984
44            G498W     1.45
45            T391C    0.542
46            C340P     1.49
47             V20M    0.622
48            L519I    0.439
49            G251Q    0.448
50            G277E      1.3
51            Y231E    0.639
52            P115R    0.784
53            L285T    0.845
54            A145N    0.349
55            A186Y   -0.165
56            D514E    0.931
57            Q530E     0.29
58            T364G     0.32
59            L414D     1.03
60             K52A     1.01
61             Q94C   -0.262
62            R190P    0.955
63            T390V     1.25
64            Y394W    0.755
65              A5E     1.41
66            P539Q    0.339
67            V214E    0.383
68            P125S     1.04
69            S217M    0.709
70            G240M     1.08
71             E17T    0.383
72            S135C    0.747
73            Q346P     1.12
74             R15M    0.112
75             D36H    -1.75
76            S338P     0.56
77            G333L     1.17
78            H292V    0.936
79            P286R     1.17
80             L11D    0.606
81            T364N    0.588
82             A21F  -0.0679
83            Q425A    0.368
84            L519A    0.739
85            R203Y    0.581
86            V199F     1.24
87            F236T   -0.222
88            G498E      1.1
89            G150S     1.63
90            L428M     1.32
91             L11A   -0.709
